Molecular target: T1, human OPGbp [143-317] (human, UniProt O14788 143-317)
T1 construct: also called OPGL
T1 sequence (looked up): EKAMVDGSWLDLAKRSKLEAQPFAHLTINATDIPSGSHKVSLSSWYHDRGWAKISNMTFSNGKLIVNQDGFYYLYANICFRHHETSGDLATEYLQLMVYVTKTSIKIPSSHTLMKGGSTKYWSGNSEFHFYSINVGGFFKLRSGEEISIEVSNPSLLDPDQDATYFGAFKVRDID
Assay: SPR (BIAcore), immobilized OPGbp [143-317]
measured.parameter: kon (M⁻¹ s⁻¹)
Numeric only. Scale: M⁻¹ s⁻¹

1. “AT” antibody variant S96Q (heavy chain CDR3) (antibody, name in Kabat numbering, V domains shown, not shown: human IgG1 CH1, hinge, CH2 and CH3) VH: QVQLVQSGAEVRKPGASVKVSCKASGYDFSNYAIHWVRQAPGQRLEWMGWINAGNGNTKFSQKFQGRITVTRDTAASTAYMELRSLRSEDTAVYYCARDQSNMVRGIIIAYYFDYWGQGTLVTVSS VL: EIVMTQSPSSLSASVGDRVTITCRASQSISRYLNWYQLKPGKAPRLLIYGASSLQSGVPSRFSGSGSGAEFTLTISSLQPEDIATYYCQHTRAFGQGTKVEIKR	1.16e+06

# context switch: different binder, same kon
kon recorded for this binder, “AT” antibody variant S96R (heavy chain CDR3) (antibody, name in Kabat numbering, V domains shown, not shown: human IgG1 CH1, hinge, CH2 and CH3) VH: QVQLVQSGAEVRKPGASVKVSCKASGYDFSNYAIHWVRQAPGQRLEWMGWINAGNGNTKFSQKFQGRITVTRDTAASTAYMELRSLRSEDTAVYYCARDRSNMVRGIIIAYYFDYWGQGTLVTVSS VL: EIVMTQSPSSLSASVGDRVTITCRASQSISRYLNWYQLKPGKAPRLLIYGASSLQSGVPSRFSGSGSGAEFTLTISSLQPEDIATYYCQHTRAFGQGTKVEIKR , is 6.97e+06

The reported measurements were obtained from patent US20140147444A1.
